method description: plasma and tissue concentrations after oral administration to the rat (HPLC)
Format: in vivo
condition context: rat, 50 mg/kg oral, liver, 4 hours after treatment; read-out: Liver concentration
readout label: concentration at 4 h (ng/g)

compound="CC1Cn2cc(C(=O)O)c(=O)c3cc(F)c(N4CCN(C)CC4)c(c32)S1 (stereo not shown) [(X)]" measured=34300

###

method description: plasma and tissue concentrations after oral administration to the rat (HPLC)
Assay type: in vivo
condition context: rat, 50 mg/kg oral, plasma, 4 hours after treatment; read-out: Plasma concentration
readout label: concentration at 4 h (ng/mL)

compound="CC1Cn2cc(C(=O)O)c(=O)c3cc(F)c(N4CCN(C)CC4)c(c32)S1 (stereo not shown)" measured=8100

###

method description: plasma and tissue concentrations after oral administration to the rat (HPLC)
Format: in vivo
condition context: rat, 50 mg/kg oral, liver, 0.5 hours after treatment; read-out: Liver concentration
readout label: concentration at 0.5 h (ng/g)

molecule="CC1Cn2cc(C(=O)O)c(=O)c3cc(F)c(N4CCN(C)CC4)c(c32)S1 (stereo not shown)" measured=62900

###

method description: plasma and tissue concentrations after oral administration to the rat (HPLC)
Format: in vivo
condition context: rat, 50 mg/kg oral, kidney, 0.5 hours after treatment; read-out: Kidney concentration
readout label: concentration at 0.5 h (ng/g)

compound="CC1Cn2cc(C(=O)O)c(=O)c3cc(F)c(N4CCN(C)CC4)c(c32)S1 (stereo not shown)" measured=34400

###

method description: urine concentrations after oral administration to the rat (HPLC)
Format: in vivo
condition context: urine, 50 mg/kg oral, 4-8 hours after treatment
readout label: concentration at 8 h

compound="CC1Cn2cc(C(=O)O)c(=O)c3cc(F)c(N4CCN(C)CC4)c(c32)S1 (stereo not shown)" readout_label="concentration at 8 h" measured="180 µg/mL"

###

method description: urine concentrations after oral administration to the rat (HPLC)
Format: in vivo
condition context: urine, 50 mg/kg oral, 0-1 hours after treatment
Method: The compound (X) was administered orally at a dose of 50 mg/kg to the rat after which the plasma, tissue and urine concentrations were evaluated by the HPLC method, as described hereinafter. The urine was collected at various times during the 24 hours following administration. The results relative to urine concentrations are summarised in Table 2, and refer to a urine pool obtained form 6 female rates having a weight of about 100 g. […]
readout label: concentration at 1 h (µg/mL)

molecule="CC1Cn2cc(C(=O)O)c(=O)c3cc(F)c(N4CCN(C)CC4)c(c32)S1 (stereo not shown) [(X)]" readout_label="concentration at 1 h" measured=90

###

method description: urine concentrations after oral administration to the rat (HPLC)
Type: in vivo
condition context: urine, 50 mg/kg oral, 8-24 hours after treatment
readout label: concentration at 24 h (µg/mL)

compound="CC1Cn2cc(C(=O)O)c(=O)c3cc(F)c(N4CCN(C)CC4)c(c32)S1 (stereo not shown) [(X)]" measured=180

###

method description: plasma and tissue concentrations after oral administration to the rat (HPLC)
Assay type: in vivo
condition context: rat, 50 mg/kg oral, heart, 15 hours after treatment; read-out: Heart concentration
readout label: concentration at 15 h (ng/g)

molecule="CC1Cn2cc(C(=O)O)c(=O)c3cc(F)c(N4CCN(C)CC4)c(c32)S1 (stereo not shown)" measured=4630

Just for reference, patent US4868299A is where these values come from.
